Assay: qHTS Assay for Inhibitors of Hepatitis C Virus (HCV)
Conditions: Huh7.5.1 HCVcc-Cre infection, luciferase reporter, 44 h; series mostly up to 41.8 µM
Screen size: about 340,000 compounds; about 12,000 (3.5%) were called active. Not shown: some 18% with an inconclusive outcome. Calls come from the whole dose curve; as a rule, active = well fitted inhibition curve with a large enough effect; inconclusive = small, poorly fitted or top-dose-only effect, or another doubt; inactive = no such curve, though single readings can be large or run the other way. The sample holds actives, similar compounds and a random draw of the others, so the mix is not that of the screen.
Mark one answer only. Choices: active, inactive

Worked examples follow.
O=C(Nc1nc(-c2ccc3c(c2)OCO3)cs1)c1ccncc1    active
CCC(C)N(C(=O)CSc1ncnc2c1cnn2-c1ccccc1)C1CCS(=O)(=O)C1 (configuration not stated)    active
Cc1cc(C(=O)OCC(=O)Nc2c(F)cccc2F)c(C)n1C1CC1    inactive
CCN(CC)S(=O)(=O)c1cc(C(=O)Nc2cc(S(=O)(=O)N3CCOCC3)ccc2N2CCCC2)ccc1F    inactive
CCc1nc(NCCO)c(C#N)c2c1CCCC2    inactive
C=CCNc1scc(-c2ccccc2)[n+]1CC=C    inactive

-- ask What did the test return for Cc1cc(C(=O)COc2ccccc2Cl)c(C)n1C1CC1 ?
-- reply inactive

-- ask Test call, this molecule: COC(=O)c1ccc(CNC(=O)c2ccc(S(=O)(=O)N3CCCCCC3)cc2)cc1
-- reply inactive

-- ask # lookup: test call for C=CC[n+]1c(-c2ccc(C)cc2)csc1NNC(=O)Nc1ccccc1
-- reply active

-- ask Fill in: this test's call for CC(C)CCNc1nc(N2CCCC2)c2c(c1C#N)CCN(C)C2 is ___
-- reply active

====

Assay: qHTS Assay for Inhibitors of Hepatitis C Virus (HCV); note: potency is the fitted concentration of half-maximal effect
Settings: Huh7.5.1 HCVcc-Cre infection, luciferase reporter, 44 h; series mostly up to 41.8 µM
Screen size: about 340,000 compounds; about 12,000 (3.5%) were called active. Not shown: some 18% with an inconclusive outcome. Only a selection was taken, and actives are over-represented in it overall.
resultType: Potency

Check out these entries, answers already filled in.
Cc1ccc(/C=C/C(=O)OCC(=O)Nc2cccnc2Cl)cc1    inactive
O=C(CNC(=O)c1ccco1)NNC(=O)c1ccc(Br)cc1    inactive
O=C(COc1ccc(Cl)cc1)N1CCN(S(=O)(=O)c2ccc(Cl)cc2)CC1    inactive
O=C(CCC(=O)N1CCN(S(=O)(=O)c2ccc(Cl)cc2)CC1)NCc1cccc(C(F)(F)F)c1    11.2 µM (active)
COc1ccc(-c2nnc(SCC(=O)c3cccs3)o2)c(OC)c1    inactive
CNC[C@H](CC1CCCCC1)NC[C@H](NCCC1CCCC1)[C@H](C)O    11.2 µM (active)
Cn1c(C(=O)NCCN2CCc3ccccc3C2)cc2c(=O)[nH]c3ccccc3c21    inactive
Cc1cc(C)c(S(=O)(=O)n2cc(C(C)C(N)C(=O)O)c3ccccc32)c(C)c1 (centres undefined)    inactive

Now consider a different compound.
-- ask For the compound O=S(=O)(O)c1cc2onnc2c2ccccc12 , report Potency.
-- reply inactive

====

Assay: qHTS Assay for Inhibitors of Hepatitis C Virus (HCV)
Details: Huh7.5.1 HCVcc-Cre infection, luciferase reporter, 44 h; series mostly up to 41.8 µM
The whole screen tested about 340,000 compounds, of which about 12,000 (3.5%) were called active. Another 18% or so got no clear call; they are omitted. The call rests on the fitted dose curve; in most records, active means well fitted inhibition curve with a large enough effect; inconclusive means small, poorly fitted or top-dose-only effect, or another doubt; inactive means no such curve, though single readings can be large or run the other way. What follows is part of a selection rich in actives, with near analogues and random picks from the rest.
Allowed answers: label 1 = active, label 0 = inactive

COC(=O)Cc1ccc(OC(=O)C2CCN(S(=O)(=O)c3ccc(OC)c(OC)c3)CC2)cc1    label 0
COCOc1cc(O)c(C(=O)/C=C/c2ccc(OCOC)c(OCOC)c2)c(OCOC)c1    label 1
Cc1cccc(C(=O)OCC(=O)Nc2sc3c(c2C#N)CCC3)c1    label 0
CNC[C@@H]1Oc2c(NS(C)(=O)=O)cccc2C(=O)N([C@@H](C)CO)C[C@H]1C    label 0
CCOC(=O)c1cc(Sc2ccccc2N)cc(C(=O)OCC)n1    label 0

-- ask Call for entry Cc1ccc(CNC(=O)c2ccc3c(c2)S(=O)(=O)c2ccccc2C3=O)cc1 :
-- reply label 0

-- ask Outcome logged for Clc1ccc(Nc2ccc3ccccc3n2)cc1 in this assay:
-- reply label 0

-- ask GET /call?item= CCCCN(CC)C(=O)c1ccc2c(c1)OCO2 returns the recorded outcome of this test.
-- reply label 0

-- ask Query: recorded result category for CC(=O)c1c(C)[nH]c(C(=O)OCC(=O)Nc2sc3c(c2C#N)CCCC3)c1C in this test
-- reply label 1

-- ask Which result was noted for this compound in the test: COC(=O)Cc1ccc(Oc2ncc(C(F)(F)F)cc2Cl)cc1
-- reply label 0

-- ask Given COc1cccc(/C(C)=N/Nc2ncc(Cl)cc2Cl)c1 , state the outcome it received in this test.
-- reply label 0

-- ask Entry CCOC(=O)c1ccc(-n2c(C)nc3c(cnn3-c3ccccc3C)c2=O)cc1 : call = ?
-- reply label 0

-- ask In this assay, the call recorded for COc1ccc(-n2c(C)nc3c(cnn3-c3ccccc3)c2=O)cc1 was what?
-- reply label 1

-- ask Which outcome was assigned to COc1cc2c(cc1OC)CN(C(C)C(=O)Nc1cccc(S(=O)(=O)N3CCOCC3)c1)CC2 (configuration not stated) in this test?
-- reply label 0

-- ask # fetch the recorded call for O=C(CNc1ccccc1N1CCCC1=O)Nc1cc(Cl)ccc1-n1cncn1 here
-- reply label 0

-- ask Field: outcome | Entry: Cc1nc(N)sc1-c1ccccc1
-- reply label 0

-- ask I'd appreciate the recorded outcome for CCn1nc(C(=O)Nc2ccc(N3CCOCC3)cc2)c2ccccc2c1=O from this test.
-- reply label 0

-- ask Look up the recorded call for Cc1ccc(CNC(=O)c2cccc3c2C(=O)c2ccc(N4CCC(C)CC4)cc2S3(=O)=O)cc1 in this test.
-- reply label 1

-- ask State the result this test recorded for CC1(C)C[C@H]2C3=CCC4[C@@]5(C)CC[C@H](O)[C@](C)(CO)C5CC[C@@]4(C)[C@]3(C)C[C@@H](O)[C@@]2(CO)[C@@H](O)[C@@H]1O (some centres not stated) .
-- reply label 0

-- ask I'd appreciate the recorded outcome for Cc1c(O)c(C)c2c(c1O)C(=O)C[C@@H](c1ccccc1)O2 from this test.
-- reply label 0

-- ask Please share the test call associated with CSCc1cc(N2CCOCC2)nc(SCc2ccc(Cl)cc2Cl)n1 .
-- reply label 0

-- ask # lookup: test call for O=C(CCc1ccccc1Cl)Nc1ccc(S(=O)(=O)Nc2nccs2)cc1
-- reply label 0

-- ask Give the logged outcome of this assay for the following compound: COc1cccc(/C=N/Nc2ncc(C(F)(F)F)cc2Cl)c1O
-- reply label 1

-- ask Hi, sorry to bother you, what did the test record for Nc1ccccc1Sc1ccc(C(F)(F)F)cc1[N+](=O)[O-] ?
-- reply label 0

====

Experiment: qHTS Assay for Inhibitors of Hepatitis C Virus (HCV)
Settings: Huh7.5.1 HCVcc-Cre infection, luciferase reporter, 44 h; series mostly up to 41.8 µM
The whole screen tested about 340,000 compounds, of which about 12,000 (3.5%) were called active. Inconclusive results (about 18%) are left out. The call rests on the fitted dose curve; in most records, active means well fitted inhibition curve with a large enough effect; inconclusive means small, poorly fitted or top-dose-only effect, or another doubt; inactive means no such curve, though single readings can be large or run the other way. This excerpt belongs to a sample that is enriched for actives.
Please state which outcome applies, choosing from class 1 for active, class 0 for inactive

Examples from the recorded data:
Cc1cc2c(cc1C)N(C(=O)CN1C(=O)c3ccccc3C1=O)C(C)(C)c1ssc(=S)c1-2    class 1
O=C(Cn1cnc2c(OCc3ccccc3)ncnc21)NCc1nc2ccccc2[nH]1    class 0

Kindly consider the entry below.
-- ask Hey, what did the test say about O=c1c2ccccc2nc2n1C(CSc1ccc(F)cc1)CN2 (stereo not drawn) ?
-- reply class 0

====

Experiment: qHTS Assay for Inhibitors of Hepatitis C Virus (HCV)
Settings: Huh7.5.1 HCVcc-Cre infection, luciferase reporter, 44 h; series mostly up to 41.8 µM
Out of some 340,000 compounds screened, about 12,000 (3.5%) were called active. Roughly 18% stayed inconclusive and do not appear here. The full list was thinned out, with actives kept by preference.
resultType: outcome

Cc1cccc(C)c1OCC(O)CN1CCCCC1 (stereo not given)    inactive
CN(C)CCn1c2c(c(SCC(=O)Nc3ccccc3C(F)(F)F)nc1=O)CCCC2    inactive
Cc1ccccc1OCC(O)CN1CCN(c2ccccn2)CC1 (stereo not given)    inactive
Cc1nn(-c2ncccn2)c2c1C(=O)CC(C)(C)C2Br (stereo not given)    inactive

-- ask Give a short answer stating reported outcome for COc1ccccc1C(=O)NCCC(=O)NCC(c1ccco1)N1CCCCC1 (stereo not given) .
-- reply inactive

====

Assay: qHTS Assay for Inhibitors of Hepatitis C Virus (HCV)
Conditions: Huh7.5.1 HCVcc-Cre infection, luciferase reporter, 44 h; series mostly up to 41.8 µM
Description: Hepatitis C virus (HCV) infects about 200 million people in the world. Many infected people progress to chronic liver disease including cirrhosis with a risk of developing liver cancer. To date, there is no effective vaccine for hepatitis C. Current therapy based on interferon is only effective in about half of the patients and is associated with significant adverse effects. The fraction of people with HCV who can complete a successful treatment is estimated to be no more than 10 percent. […]
Screen size: about 340,000 compounds; about 12,000 (3.5%) were called active. Not shown: some 18% with an inconclusive outcome. Calls come from the whole dose curve; as a rule, active = well fitted inhibition curve with a large enough effect; inconclusive = small, poorly fitted or top-dose-only effect, or another doubt; inactive = no such curve, though single readings can be large or run the other way. The sample holds actives, similar compounds and a random draw of the others, so the mix is not that of the screen.
Answer with one of the outcomes YES (active), NO (inactive)

-- ask Fill in: this test's call for Cc1c(-c2cccc(Cl)c2)nc2ccccc2c1C(=O)OCC(=O)N(C)C1CCS(=O)(=O)C1 (stereo not drawn) is ___
-- reply YES

-- ask Assay outcome for O=C(c1ccc(Cl)c(S(=O)(=O)N2CCCCCC2)c1)N1CCN(c2ccc(O)cc2)CC1 : what was it?
-- reply NO

-- ask Please let me know the test result on file for Cc1cccc(NC(=S)N2CCC(C(=O)c3ccc(F)cc3)CC2)c1 .
-- reply NO

-- ask In this assay, the call recorded for Cc1ccc(C)c(NC(=O)COC(=O)CSc2ccccc2)c1 was what?
-- reply NO

-- ask Dear colleague, could you share the recorded outcome for O=C(Nc1ncccc1O)c1ccc(C(=O)c2ccccc2)cc1 when you have a moment?
-- reply NO

-- ask # outcome recorded in this test, key = COc1ccccc1-n1cnc2cc(NS(=O)(=O)c3ccccc3)ccc21
-- reply YES

-- ask Write down the call the test reported for this compound. Item: Cc1ccc(S(=O)(=O)N2CCOCC2)cc1C(=O)Nc1ccccc1N1CCCC1
-- reply NO

-- ask What outcome does the record of this test show for Cc1ccc(C2CCN(C(=S)Nc3cccc(Cl)c3)C2)cc1 (stereo not drawn) ?
-- reply YES
